Measured F of individual entries
Experiment: Pharmacokinetic profiles in rats
Assay type: in vivo, rat
Conditions: oral vs iv (iv 1 mg/kg; p.o. generally 5 or 10 mg/kg)
Method: The compounds disclosed herein are assessed in pharmacokinetic studies in mice, rats, dogs or monkeys. The compounds are administered as a water solution, 2% HPMC+1% TWEEN®80 in water solution, 5% DMSO+5% solutol in saline, 4% MC suspension or capsule. For the intravenous administration, the animals are generally given at 1 or 2 mg/kg dose. […] The plasma solutions are collected, stored at −20° C. or −70° C. until analyzed by LC/MS/MS as described above.
Give a bare numeral; the unit % is implied.

Past entries and their recorded results:
COMPOUND	F / %
C[C@H](Nc1ncnc(N)c1-c1nnn(C)n1)c1cc2cccc(Cl)c2c(=O)n1-c1ccccc1 [Ex. 15]	48.92
CC[C@H](Nc1ncnc(N)c1-c1nnc(C)o1)c1cc2cccc(C)c2c(=O)n1C1CC1 [Ex. 6]	48.66
CCc1noc(-c2c(N)ncnc2N[C@@H](CC)c2cc3cccc(Cl)c3c(=O)n2C2CC2)n1 [Ex. 22]	16.23

Requested read-out: F. Entry: CC[C@H](Nc1ncnc(N)c1-c1nc(C)no1)c1cc2cccc(Cl)c2c(=O)n1C1CC1 [Ex. 7] 42.95

---

experiment: Compound stability in rat liver microsomes; assay type: in vitro ADME; details: liver microsomes, pH 7.4; in vivo CLint extrapolated from rat liver microsome incubation
OUTCOME_MEASURE: log10 of CLint scaled at 5 μM (log10 of the value in mL/min/kg)
Base-10 log of CLint scaled at 5 μM, unit mL/min/kg.

MOLECULE	log10 of CLint scaled at 5 μM
Cc1nnc(-c2c(N)ncnc2N[C@@H](C)c2cc3cccc(Cl)c3c(=O)n2C2CC2)o1 [Ex. 4]	2.01

Look up log10 of CLint scaled at 5 μM: Cc1nc(-c2c(N)ncnc2N[C@@H](C)c2cc3cccc(-c4cnn(C)c4)c3c(=O)n2C2CC2)no1 [Ex. 34] 1.48

Param item = Cc1noc(-c2c(N)ncnc2N[C@@H](C)c2cc3cccc(Cl)c3c(=O)n2-c2cccc(F)c2)n1 [Ex. 23] ; retrieve measured log10 of CLint scaled at 5 μM. 2.66

Entry CC[C@H](Nc1ncnc(N)c1-c1nnc(C)o1)c1cc2cccc(Cl)c2c(=O)n1-c1ccccc1 [Ex. 5] : reported log10 of CLint scaled at 5 μM = ? 2.03

Item Cc1nc(-c2c(N)ncnc2N[C@@H](C)c2cc3cccc(Cl)c3c(=O)n2C2CC2)no1 [Ex. 11] has what recorded log10 of CLint scaled at 5 μM? 2.50

Sample C[C@H](Nc1ncnc(N)c1-c1nnn(C)n1)c1cc2cccc(-c3cnn(C)c3)c2c(=O)n1C1CC1 [Ex. 33] — what was its log10 of CLint scaled at 5 μM? 1.43

Param item = Cc1noc(-c2c(N)ncnc2N[C@@H](C)c2cc3cccc(-c4cnn(C)c4)c3c(=O)n2C2CC2)n1 [Ex. 26] ; retrieve measured log10 of CLint scaled at 5 μM. 1.35

Need log10 of CLint scaled at 5 μM of Cc1nnc(-c2c(N)ncnc2N[C@@H](C)c2cc3cccc(-c4cnn(C)c4)c3c(=O)n2C2CC2)o1 [Ex. 25] , thanks. 1.16

# get_value(readout='log10 of CLint scaled at 5 μM', item= CCc1noc(-c2c(N)ncnc2N[C@@H](CC)c2cc3cccc(Cl)c3c(=O)n2C2CC2)n1 [Ex. 22] ) 2.41

Data origin, for the record: patent US9512114B2
